Tested on: HeLa Kyoto;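 note: HeLa Kyoto cells synchronized by double thymidine or nocodazole block, proteins quantified by TMT10plex mass spectrometry, three independent biological replicates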
measurementProtocol: melting temperature (median over replicates), in situ; higher = more thermally stable
settings: cell cycle stage: mitosis
quantityName: melting temperature (°C)
Note: unit °C is implicit; provide only the numeric part.

| substance | melting temperature / °C |
| --- | --- |
| MAGTGLVAGEVVVDALPYFDQGYEAPGVREAAAALVEEETRRYRPTKNYLSYLTAPDYSAFETDIMRNEFERLAARQPIELLSMKRYELPAPSSGQKNDITAWQECVNNSMAQLEHQAVRIENLELMSQHGCNAWKVYNENLVHMIEHAQKELQKLRKHIQDLNWQRKNMQLTAGSKLREMESNWVSLVSKNYEIERTIVQLENEIYQIKQQHGEANKENIRQDF [BCAS2] | 50.3 |
| MAMEGYWRFLALLGSALLVGFLSVIFALVWVLHYREGLGWDGSALEFNWHPVLMVTGFVFIQGIAIIVYRLPWTWKCSKLLMKSIHAGLNAVAAILAIISVVAVFENHNVNNIANMYSLHSWVGLIAVICYLLQLLSGFSVFLLPWAPLSLRAFLMPIHVYSGIVIFGTVIATALMGLTEKLIFSLRDPAYSTFPPEGVFVNTLGLLILVFGALIFWIVTRPQWKRPKEPNSTILHPNGGTEQGARGSMPAYSGNNMDKSDSELNSEVAARKRNLALDEAGQRSTM [CYBRD1] | 53.6 |
| MAAVLKPVLLGLRDAPVHGSPTGPGAWTASKLGGIPDALPTVAAPRPVCQRCGQPLALVVQVYCPLEGSPFHRLLHVFACACPGCSTGGARSWKVFRSQCLQVPEREAQDAQKQGNSLAAEDWCEGADDWGSDTEEGPSPQFTLDFGNDASSAKDVDWTARLQDLRLQDAVLGAAHPVPPGLPLFLPYYICVADEDDYRDFVNLDHAHSLLRDYQQREGIAMDQLLSQSLPNDGDEKYEKTIIKSGDQTFYKFMKRIAACQEQILRYSWSGEPLFLTCPTSEVTELPACSQCGGQRIFEFQLMPALVSMLKSANLGLSVEFGTILVYTCEKSCWPPNHQTPMEEFCIIQEDPDELLFK [PDCD2L] | 49.8 |
| SMARCA2 | 49.7 |

Name the recorded melting temperature for MNSNVENLPPHIIRLVYKEVTTLTADPPDGIKVFPNEEDLTDLQVTIEGPEGTPYAGGLFRMKLLLGKDFPASPPKGYFLTKIFHPNVGANGEICVNVLKRDWTAELGIRHVLLTIKCLLIHPNPESALNEEAGRLLLENYEEYAARARLLTEIHGGAGGPSGRAEAGRALASGTEASSTDPGAPGGPGGAEGPMAKKHAGERDKKLAAKKKTDKKRALRRL [UBE2S] .
50.9
